Experiment: Plasma protein binding in female rat
Format: ADME, cell-free
Settings: read-out: PPB (converted)
MEASURE NAME: fraction unbound
Response field accepts a number only; no unit should be typed.

What value of measured fraction unbound is listed for CC(C)OC(=O)N1CCC(Oc2ncnc3c2cnn3-c2ccc(S(C)(=O)=O)cc2F)CC1 ?
0.034

###

Measured EC50 accompanies every entry in the list below.
Target: Glucose-dependent insulinotropic receptor (Homo sapiens, UniProt Q8TDV5)
Sequence (Q8TDV5 whole entry): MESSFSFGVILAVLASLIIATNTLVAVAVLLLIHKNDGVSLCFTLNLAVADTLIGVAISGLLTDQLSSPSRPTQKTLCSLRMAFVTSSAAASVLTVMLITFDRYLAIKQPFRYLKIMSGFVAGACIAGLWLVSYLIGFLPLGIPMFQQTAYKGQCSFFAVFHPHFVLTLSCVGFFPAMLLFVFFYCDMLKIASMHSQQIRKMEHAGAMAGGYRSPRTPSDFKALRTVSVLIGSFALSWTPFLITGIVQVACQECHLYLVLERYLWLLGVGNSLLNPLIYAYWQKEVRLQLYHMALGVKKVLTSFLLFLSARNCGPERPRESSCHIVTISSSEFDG
Assay: Agonist activity at human GPR119 by melanophore assay
Please state the figure in nM; there is no need to write the unit.

Solved cases (3 shown):
MOLECULE: CN(CC1CCN(C(=O)OC(C)(C)C)CC1)c1ncnc2c1cnn2-c1ccc(S(C)(=O)=O)cc1
EC50, nM: 11.6
//
MOLECULE: CC(C)(C)OC(=O)N1CCC(Nc2ncnc3c2cnn3-c2ccc(S(C)(=O)=O)cc2)CC1
EC50, nM: 250
//
MOLECULE: CC(C)(C)OC(=O)N1CCC(Cc2ncnc3c2cnn3-c2ccc(S(C)(=O)=O)cc2F)CC1
EC50, nM: 3.4

What value of measured EC50 is listed for CC(C)(C)OC(=O)N1CCC(Sc2ncnc3c2cnn3-c2ccc(S(C)(=O)=O)cc2)CC1 ?
5.6

What value of measured EC50 is listed for CC(C)c1noc(C2CCN(c3ncnc4c3cnn4-c3ccc(S(C)(=O)=O)cc3)CC2)n1 ?
42

What value of measured EC50 is listed for CCN(CC1CCN(C(=O)OC(C)(C)C)CC1)c1ncnc2c1cnn2-c1ccc(S(C)(=O)=O)cc1 ?
6.3

What value of measured EC50 is listed for CC(C)(C)COC(=O)N1CCC(Oc2ncnc3c2cnn3-c2ccc(S(C)(=O)=O)cc2)CC1 ?
8.1

What value of measured EC50 is listed for CC(C)(C)OC(=O)N1CCC(CNc2ncnc3c2cnn3-c2ccc(S(C)(=O)=O)cc2)CC1 ?
265

###

Target: Glucose-dependent insulinotropic receptor (Rattus norvegicus) (UniProt Q7TQN8)
Sequence (Q7TQN8 whole entry): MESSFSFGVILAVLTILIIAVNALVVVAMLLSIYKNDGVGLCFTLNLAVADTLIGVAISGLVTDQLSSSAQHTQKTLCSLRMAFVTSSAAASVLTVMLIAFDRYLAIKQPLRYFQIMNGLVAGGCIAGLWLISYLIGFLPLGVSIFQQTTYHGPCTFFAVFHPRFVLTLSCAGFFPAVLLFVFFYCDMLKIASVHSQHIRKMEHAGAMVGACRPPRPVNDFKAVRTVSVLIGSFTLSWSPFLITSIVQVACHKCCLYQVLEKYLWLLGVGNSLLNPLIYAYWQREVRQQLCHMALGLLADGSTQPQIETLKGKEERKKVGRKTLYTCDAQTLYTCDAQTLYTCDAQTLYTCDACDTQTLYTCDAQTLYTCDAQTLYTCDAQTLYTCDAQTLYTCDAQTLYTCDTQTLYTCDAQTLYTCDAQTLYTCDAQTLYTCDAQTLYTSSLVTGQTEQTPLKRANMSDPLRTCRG
Assay: Selectivity ratio of EC50 for rat GPR119 to EC50 for human GPR119
Measured Ratio EC50 accompanies every entry in the list below.
Response field accepts a number only; no unit should be typed.

Solved cases (2 shown):
SMILES ENTRY: CC(C)(C)OC(=O)N1CCC(Sc2ncnc3c2cnn3-c2ccc(S(C)(=O)=O)cc2F)CC1
DATA VALUE: 14.6

SMILES ENTRY: CC(C)OC(=O)N1CCC(Oc2ncnc3c(-c4ccc(S(C)(=O)=O)cc4)noc23)CC1
DATA VALUE: 3

What value of measured Ratio EC50 is listed for CC(C)(C)OC(=O)N1CCC(Cc2ncnc3c2cnn3-c2ccc(S(C)(=O)=O)cc2F)CC1 ?
25.9

What value of measured Ratio EC50 is listed for CC(C)(C)OC(=O)N1CCC(Oc2ncnc3c(-c4ccc(S(C)(=O)=O)cc4)noc23)CC1 ?
24.3

What value of measured Ratio EC50 is listed for CCN(CC1CCN(C(=O)OC(C)C)CC1)c1ncnc2c1cnn2-c1ccc(S(C)(=O)=O)cc1F ?
77.6

What value of measured Ratio EC50 is listed for CC(C)(C)OC(=O)N1CCC(Oc2ncnc3c2cnn3-c2ccc(S(C)(=O)=O)cc2F)CC1 ?
21.8

What value of measured Ratio EC50 is listed for CC(C)(C)OC(=O)N1CCC(Oc2ncnc3c2cnn3-c2ccc(S(C)(=O)=O)cc2)CC1 ?
8.9

What value of measured Ratio EC50 is listed for CCOC(=O)N1CCC(Oc2ncnc3c2cnn3-c2ccc(S(C)(=O)=O)cc2)CC1 ?
13.9

###

Target: Glucose-dependent insulinotropic receptor (Rattus norvegicus)
Test: Agonist activity at rat GPR119 by melanophore assay
Measured pEC50 accompanies every entry in the list below.
Expect pEC50 as a plain number equal to -log10 of the molar concentration.

SMILES ENTRY: CC(C)(C)OC(=O)N1CCC(Oc2ncnc3c(-c4ccc(S(C)(=O)=O)cc4)noc23)CC1
TARGET SYSTEM: Glucose-dependent insulinotropic receptor (Rattus norvegicus)
DATA VALUE: 7.77
--
SMILES ENTRY: CCN(CC1CCN(C(=O)OC(C)C)CC1)c1ncnc2c1cnn2-c1ccc(S(C)(=O)=O)cc1F
TARGET SYSTEM: Glucose-dependent insulinotropic receptor (Rattus norvegicus)
DATA VALUE: 6.58
--
SMILES ENTRY: CC(C)(C)OC(=O)N1CCC(Cc2ncnc3c2cnn3-c2ccc(S(C)(=O)=O)cc2F)CC1
TARGET SYSTEM: Glucose-dependent insulinotropic receptor (Rattus norvegicus)
DATA VALUE: 7.06
--
SMILES ENTRY: CC(C)(C)OC(=O)N1CCC(Sc2ncnc3c2cnn3-c2ccc(S(C)(=O)=O)cc2F)CC1
TARGET SYSTEM: Glucose-dependent insulinotropic receptor (Rattus norvegicus)
DATA VALUE: 8.14
--
SMILES ENTRY: CS(=O)(=O)c1ccc(-n2ncc3c(OC4CCN(C(=O)OC5CCCC5)CC4)ncnc32)cc1
TARGET SYSTEM: Glucose-dependent insulinotropic receptor (Rattus norvegicus)
DATA VALUE: 7.68

What value of measured pEC50 is listed for CC(C)(C)OC(=O)N1CCC(Cc2ncnc3c2cnn3-c2ccc(S(C)(=O)=O)cc2)CC1 ?
6.92

What value of measured pEC50 is listed for CC(C)OC(=O)N1CCC(Oc2ncnc3c2cnn3-c2ccc(S(C)(=O)=O)cc2F)CC1 ?
7.48

What value of measured pEC50 is listed for CC(C)(C)COC(=O)N1CCC(Oc2ncnc3c2cnn3-c2ccc(S(C)(=O)=O)cc2)CC1 ?
7.19

What value of measured pEC50 is listed for CC(C)(C)OC(=O)N1CCC(Oc2ncnc3c2cnn3-c2ccc(S(C)(=O)=O)cc2)CC1 ?
8.01

###

Measured Emax accompanies every entry in the list below.
Target: Glucose-dependent insulinotropic receptor (Homo sapiens)
Sequence (whole entry): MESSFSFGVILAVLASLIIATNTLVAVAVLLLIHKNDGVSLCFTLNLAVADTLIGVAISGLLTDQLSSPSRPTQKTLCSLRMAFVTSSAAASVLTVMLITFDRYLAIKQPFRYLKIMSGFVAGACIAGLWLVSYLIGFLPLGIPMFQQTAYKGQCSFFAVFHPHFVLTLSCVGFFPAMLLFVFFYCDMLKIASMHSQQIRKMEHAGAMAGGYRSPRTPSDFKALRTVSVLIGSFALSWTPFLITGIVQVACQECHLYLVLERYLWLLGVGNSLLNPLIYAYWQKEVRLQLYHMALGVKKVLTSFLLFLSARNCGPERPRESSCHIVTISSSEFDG
Assay: Agonist activity at human GPR119 by melanophore assay relative to AR231453
Format: functional
Please state the figure in %; there is no need to write the unit.

Solved cases (5 shown):
SMILES ENTRY: CC(C)(C)OC(=O)N1CCC(Cc2ncnc3c2cnn3-c2ccc(S(C)(=O)=O)cc2)CC1
UNITS LABEL: %
Emax: 91
--
SMILES ENTRY: CC(C)(C)OC(=O)N1CCC(Oc2ncnc3c2cnn3-c2ccc(S(C)(=O)=O)cc2)CC1
UNITS LABEL: %
Emax: 96
--
SMILES ENTRY: CC(C)(C)OC(=O)N1CCC(Nc2ncnc3c2cnn3-c2ccc(S(C)(=O)=O)cc2)CC1
UNITS LABEL: %
Emax: 101
--
SMILES ENTRY: Cc1nc(OC2CCN(C(=O)OC(C)(C)C)CC2)c2c(C)nn(-c3ccc(S(C)(=O)=O)cc3)c2n1
UNITS LABEL: %
Emax: 90
--
SMILES ENTRY: CC(C)(C)OC(=O)N1CCC(Oc2ncnc3c(-c4ccc(S(C)(=O)=O)cc4)noc23)CC1
UNITS LABEL: %
Emax: 100

What value of measured Emax is listed for CC(C)(C)COC(=O)N1CCC(Oc2ncnc3c2cnn3-c2ccc(S(C)(=O)=O)cc2)CC1 ?
105

What value of measured Emax is listed for CC(C)(C)OC(=O)N1CCC(Sc2ncnc3c2cnn3-c2ccc(S(C)(=O)=O)cc2)CC1 ?
104

What value of measured Emax is listed for CC(C)(C)OC(=O)N1CCC(Oc2ncnc3c2cnn3-c2ccc(S(C)(=O)=O)cc2F)CC1 ?
79

What value of measured Emax is listed for CC(C)(C)OC(=O)N1CCC(Cc2ncnc3c2cnn3-c2ccc(S(C)(=O)=O)cc2F)CC1 ?
72

What value of measured Emax is listed for CS(=O)(=O)c1ccc(-n2ncc3c(OC4CCN(C(=O)OC5CCCC5)CC4)ncnc32)cc1 ?
80
